B1: TRIM43 (parent)
chain: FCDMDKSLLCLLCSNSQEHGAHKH

Variants of: B1
Assay: protein stability index of a GFP-peptide fusion (GPS, HEK-293T) (PSI 1-6); higher = more stable;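 further: lentivirally expressed fusions sorted by FACS into six bins by GFP to DsRed ratio, PSI derived from sequencing read proportions per bin multiplied by bin number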
Conditions: c terminus: a fixed tail appended
PROPERTY_LABEL: protein stability index

The variant listed as D3G shows protein stability index equal to 1.99

The variant listed as H19C shows protein stability index equal to 2.03

The variant listed as Q17F shows protein stability index equal to 2.05

The variant listed as A21C shows protein stability index equal to 2.38

The variant listed as D3K shows protein stability index equal to 2.35

The variant listed as H24N shows protein stability index equal to 2.26

The variant listed as D3F shows protein stability index equal to 2

The variant listed as G20C shows protein stability index equal to 2.59

The variant listed as L8T shows protein stability index equal to 2.32

The variant listed as L11N shows protein stability index equal to 2.07

The variant listed as L11K shows protein stability index equal to 2.2

The variant listed as L8D shows protein stability index equal to 3.41

The variant listed as S14W shows protein stability index equal to 2.06

The variant listed as K6H shows protein stability index equal to 2.09

The variant listed as Q17P shows protein stability index equal to 1.7

The variant listed as K23T shows protein stability index equal to 2.02

The variant listed as S16A shows protein stability index equal to 1.8

The variant listed as D5N shows protein stability index equal to 1.8

The variant listed as C13S shows protein stability index equal to 1.61

The variant listed as A21G shows protein stability index equal to 2.26

The variant listed as C2S shows protein stability index equal to 2.51

The variant listed as C2T shows protein stability index equal to 1.84

The variant listed as L9P shows protein stability index equal to 2.84

The variant listed as G20W shows protein stability index equal to 1.56

The variant listed as E18L shows protein stability index equal to 1.7

The variant listed as F1P shows protein stability index equal to 3.6

The variant listed as L9C shows protein stability index equal to 2.36

The variant listed as F1R shows protein stability index equal to 3.57

The variant listed as H19D shows protein stability index equal to 2.38

The variant listed as K23L shows protein stability index equal to 1.63

The variant listed as L11C shows protein stability index equal to 1.44

The variant listed as D3R shows protein stability index equal to 1.99

The variant listed as D5M shows protein stability index equal to 2.97

The variant listed as S16F shows protein stability index equal to 2.13

The variant listed as L9R shows protein stability index equal to 2.08

The variant listed as E18S shows protein stability index equal to 1.63

The variant listed as H24C shows protein stability index equal to 2.4

The variant listed as C10E shows protein stability index equal to 2.23

The variant listed as S16C shows protein stability index equal to 1.87

The variant listed as L8Q shows protein stability index equal to 2.82

The variant listed as L9T shows protein stability index equal to 2.29

The variant listed as A21K shows protein stability index equal to 1.98

The variant listed as L12T shows protein stability index equal to 1.95

The variant listed as E18K shows protein stability index equal to 1.86

The variant listed as C2P shows protein stability index equal to 2.76

The variant listed as S14K shows protein stability index equal to 2.12

The variant listed as F1W shows protein stability index equal to 2.45

The variant listed as S16Y shows protein stability index equal to 1.79

The variant listed as K23Y shows protein stability index equal to 1.43

The variant listed as D5L shows protein stability index equal to 2.69

The variant listed as H22P shows protein stability index equal to 1.69

The variant listed as H22W shows protein stability index equal to 1.45

The variant listed as Q17N shows protein stability index equal to 1.51

The variant listed as E18T shows protein stability index equal to 1.68

The variant listed as H24P shows protein stability index equal to 1.69

The variant listed as L12N shows protein stability index equal to 2.14

The variant listed as C10H shows protein stability index equal to 2.03

The variant listed as H22L shows protein stability index equal to 1.61

The variant listed as S7T shows protein stability index equal to 2.04

The variant listed as H22I shows protein stability index equal to 2.17

The variant listed as L11H shows protein stability index equal to 2.04

The variant listed as H24V shows protein stability index equal to 2.04

The variant listed as C10S shows protein stability index equal to 1.59

The variant listed as L11I shows protein stability index equal to 2.25

The variant listed as L8R shows protein stability index equal to 2.71

The variant listed as K6P shows protein stability index equal to 2.12

The variant listed as H19R shows protein stability index equal to 2.03

The variant listed as M4Y shows protein stability index equal to 2.07

The variant listed as M4I shows protein stability index equal to 1.96

The variant listed as S16D shows protein stability index equal to 1.97

The variant listed as C13G shows protein stability index equal to 1.9

The variant listed as N15E shows protein stability index equal to 1.92

The variant listed as H22K shows protein stability index equal to 1.73

The variant listed as L12D shows protein stability index equal to 2.32
